Values from the supplement of paper PMC8728848

target: Neu5Ac(a2-3)Gal(b1-3)[Fuc(a1-4)]GlcNAc; experiment: glycan array binding signal (z-score within array); higher = stronger binding; settings: glycan notation: IUPAC condensed, linker removed
The entries come from a sample that favours the strongest signals as a whole.
Give glycan array binding signal (z-score) for every item shown.
Number only, please.

Enquiry: What does the data say about its glycan array binding signal (z-score)? Entry: FBG2 (Homo sapiens), Q9NRD1 (protein) MDAPHSKAALDSINELPENILLELFTHVPARQLLLNCRLVCSLWRDLIDLMTLWKRKCLREGFITKDWDQPVADWKIFYFLRSLHRNLLRNPCAEEDMFAWQIDFNGGDRWKVESLPGAHGTDFPDPKVKKYFVTSYEMCLKSQLVDLVAEGYWEELLDTFRPDIVVKDWFAARADCGCTYQLKVQLASADYFVLASFEPPPVTIQQWNNATWTEVSYTFSDYPRGVRYILFQHGGRDTQYWAGWYGPRVTNSSIVVSPKMTRNQASSEAQPGQKHGQEEAAQSPYRAVVQIFPPPVTIQQWNNATWTEVSYTFSDYPRGVRYILFQHGGRDTQYWAGWYGPRVTNSSIVVSPKMTRNQASSEAQPGQKHGQEEAAQSPYRAVVQI
Return: -0.752

Enquiry: What does the data say about its glycan array binding signal (z-score)? Entry: Malectin (Xenopus laevis), Q6INX3 (protein) SGLADKVIWAVNAGGESHVDVHGIHYRKDPLEGRVGRASDYGMKLPILRSNPEDQVLYQTERYNEDSFGYDIPIKEEGEYVLVLKFAEVYFAQSQQKVFDVRVNGHTVVKDLDIFDRVGHSTAHDEIIPISIKKGKLSVQGEVSTFTGKLSVEFVKGYYDNPKVCALFIMKGTADDVPMLQPHPGLE
Return: -0.076
